# Test system: tonic seizure produced by 50 milliamps current through corneal electrodes (hind limb tonic extension)
# assay overview: Maximum Electroshock Test (MES)
# Format: in vivo, female C57Bl/6 mice
# experimental parameters: Mus musculus, ip, 0.5 h; mice, i.p. 30 min before MES; abolition of hind limb tonic extension; read-out: MES Results: median effective dose (ED50)
Here the recorded ED50 is given for each entry.

compound | ED50
CCC(=O)Nc1ccccc1-c1nc2ccccc2[nH]1 | < 25 mg/kg
CNC(=O)Nc1ccccc1-c1nc2ccccc2[nH]1 | < 75 mg/kg
COCC(=O)Nc1ccccc1-c1nc2ccccc2[nH]1 | < 75 mg/kg
CC(=O)Nc1ccccc1-c1nc2ccccc2o1 [Example 11, N-[2-(benzoxazol-2-yl)phenyl] acetamide] | < 75 mg/kg
CC(=O)Nc1ccccc1-c1nc2ccccc2s1 [Example 13, N-[2-(benzthiazol-2-yl)phenyl] acetamide] | < 25 mg/kg
CNC(=O)Nc1ccccc1-c1nc2ccccc2o1 | < 100 mg/kg
